Listed next: entries and their corresponding viability at 48 h, 100 µg/mL.
assay: MTT cytotoxicity test, colon mucosa cells; type: cell-based, human; conditions: human, CCD 841CoN normal colonic epithelial cells, colon cells (CCD 841CoN), 100 µg/mL, read-out: cell proliferation and viability at the maximum dose
Express your answer in %, writing the number without its unit.

# compound, measurement kind, readout number
data = [
    ("CCCCCCCCC=CCCCCCCCC(=O)OCC(COC(=O)OC1CCC2(C)C(=CCC3C2CCC2(C)C(C(C)C=CC(CC)C(C)C)CCC32)C1)OC(=O)OC1CCC2(C)C(=CCC3C2CCC2(C)C(C(C)C=CC(CC)C(C)C)CCC32)C1 (centres unmarked)", "viability at 48 h, 100 µg/mL", 59.4),
]

# ---- query compound ----
# input Could you tell me which viability at 48 h, 100 µg/mL is on file for CCCCCCCCCCCCCCCC(=O)OCC(COC(=O)O[C@H]1CC[C@@]2(C)C(=CC[C@H]3[C@@H]4CC[C@H]([C@H](C)/C=C/[C@@H](CC)C(C)C)[C@@]4(C)CC[C@@H]32)C1)OC(=O)O[C@H]1CC[C@@]2(C)C(=CC[C@H]3[C@@H]4CC[C@H]([C@H](C)/C=C/[C@@H](CC)C(C)C)[C@@]4(C)CC[C@@H]32)C1 (some centres unmarked) ?
# output 53.8

====

assay: MTT cytotoxicity test, hepatocytes; type: cell-based, human; conditions: human, THLE-2 normal liver cells (hepatocytes), liver cells (THLE-2), 100 µg/mL, read-out: cell proliferation and viability at the maximum dose
measurement kind: viability at 48 h, 100 µg/mL (%)
Express your answer in %, writing the number without its unit.

# compound, measurement kind, unit abbreviation, readout number
data = [
    ("CCCCCCCCCCCCCCCC(=O)OCC(COC(=O)O[C@H]1CC[C@@]2(C)C(=CC[C@H]3[C@@H]4CC[C@H]([C@H](C)/C=C/[C@@H](CC)C(C)C)[C@@]4(C)CC[C@@H]32)C1)OC(=O)O[C@H]1CC[C@@]2(C)C(=CC[C@H]3[C@@H]4CC[C@H]([C@H](C)/C=C/[C@@H](CC)C(C)C)[C@@]4(C)CC[C@@H]32)C1 (some centres unmarked)", "viability at 48 h, 100 µg/mL", "%", 56.3),
]

# ---- query compound ----
# input Could you tell me which viability at 48 h, 100 µg/mL is on file for CCCCCCCCC=CCCCCCCCC(=O)OCC(COC(=O)OC1CCC2(C)C(=CCC3C2CCC2(C)C(C(C)C=CC(CC)C(C)C)CCC32)C1)OC(=O)OC1CCC2(C)C(=CCC3C2CCC2(C)C(C(C)C=CC(CC)C(C)C)CCC32)C1 (centres unmarked) ?
# output 48.9
